ASSAY_TARGET: Peroxisome proliferator-activated receptor alpha (Mus musculus)
Sequence (P23204 whole entry, the tested form may be a part): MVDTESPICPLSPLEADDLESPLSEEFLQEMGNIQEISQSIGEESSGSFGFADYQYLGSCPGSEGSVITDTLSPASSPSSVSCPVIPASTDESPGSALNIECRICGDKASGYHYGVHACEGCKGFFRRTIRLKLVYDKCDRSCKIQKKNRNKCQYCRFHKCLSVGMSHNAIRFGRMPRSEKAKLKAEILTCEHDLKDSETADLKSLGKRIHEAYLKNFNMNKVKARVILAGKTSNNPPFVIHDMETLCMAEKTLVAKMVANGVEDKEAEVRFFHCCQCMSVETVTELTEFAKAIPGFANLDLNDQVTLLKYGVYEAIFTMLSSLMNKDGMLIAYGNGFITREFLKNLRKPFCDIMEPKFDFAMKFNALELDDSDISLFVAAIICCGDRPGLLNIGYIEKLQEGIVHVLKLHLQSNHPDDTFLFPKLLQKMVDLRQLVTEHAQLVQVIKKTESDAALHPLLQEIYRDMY
PROCEDURE_TEXT: Agonist activity at Gal4-fused mouse PPAR-alpha ligand binding domain expressed in CHO-K1 cells assessed as receptor transactivation incubated for 24 to 48 hrs by luciferase reporter gene assay
pEC50: −log10 of the molar value.
ENDPOINT_NAME: pEC50

Examples from the recorded data:
>>> data_value("C[C@H]1CN(CCOc2cc(CC(=O)O)ccc2Cl)CCN1c1nc2ccc(Cl)cc2s1")
4.89
>>> data_value("CC[C@H]1CN(Cc2cc(C)cc(CC(=O)O)c2)CCN1c1nc2ccc(C(F)(F)F)cc2s1")
5.42
>>> data_value("CC[C@H]1CN(c2nc3ccc(Cl)cc3s2)CCC1CCOc1cc(CC(=O)O)ccc1Cl (stereo partly drawn)")
5.47

I. Cc1ccc(CC(=O)O)cc1OCCN1CCN(c2nc3ccc(Cl)cc3s2)C[C@@H]1C
II. CC[C@@H]1CN(Cc2cc(C)cc(CC(=O)O)c2)CCN1c1nc2ccc(C(F)(F)F)cc2s1
III. CC[C@H]1CN(c2nc3ccc(C(F)(F)F)cc3s2)CCN1CCOc1cc(CC(=O)O)ccc1Cl
-- ask Sort the compounds on pEC50; start with the lowest figure. Show the ranking through the labels, in the order asked for.
-- reply II, I, III
(II: 5.07, I: 5.31, III: 5.60)

====

ASSAY_TARGET: Peroxisome proliferator-activated receptor alpha (Homo sapiens) (UniProt Q07869)
PROCEDURE_TEXT: Agonist activity at Gal4-fused human PPAR-alpha ligand binding domain expressed in CHO-K1 cells assessed as receptor transactivation incubated for 24 to 48 hrs by luciferase reporter gene assay relative to control
Format: cell-based
MEASUREMENT_CONTEXT: time lower 24.0 hrs, time upper […]
ENDPOINT_NAME: Emax (%)

>>> data_value("Cc1cc(CC(=O)O)cc(CN2CCN(c3nc4ccc(C(F)(F)F)cc4s3)[C@H](CC(C)C)C2)c1")
1.6
>>> data_value("Cc1ccc(CC(=O)O)cc1OCCC1CCN(c2nc3ccc(Cl)cc3s2)CC1")
8
>>> data_value("Cc1cc(CC(=O)O)cc(CN2CCN(c3nc4ccc(C(F)(F)F)cc4s3)[C@@H](CC(C)C)C2)c1")
1.4
>>> data_value("CC1CN(c2nc3ccc(Cl)cc3s2)CCC1CCOc1cc(CC(=O)O)ccc1Cl (configuration not stated)")
3
>>> data_value("Cc1cc(CC(=O)O)cc(CN2CCN(c3nc4ccc(C(F)(F)F)cc4s3)[C@@H](C)C2)c1")
6.3

A. Cc1cc(CC(=O)O)cc(CN2CCN(c3nc4ccc(C(F)(F)F)cc4s3)[C@H](C)C2)c1
B. CC(C)C[C@H]1CN(c2nc3ccc(Cl)cc3s2)CCC1CCOc1cc(CC(=O)O)ccc1Cl (some centres not stated)
-- ask Which of these two has the smaller recorded Emax: A or B ? Identify your selection by its label.
-- reply B
(B: 3.1%, A: 6.3%)

====

ASSAY_TARGET: Peroxisome proliferator-activated receptor delta (Mus musculus, UniProt P35396)
Sequence (P35396 whole entry, the tested form may be a part): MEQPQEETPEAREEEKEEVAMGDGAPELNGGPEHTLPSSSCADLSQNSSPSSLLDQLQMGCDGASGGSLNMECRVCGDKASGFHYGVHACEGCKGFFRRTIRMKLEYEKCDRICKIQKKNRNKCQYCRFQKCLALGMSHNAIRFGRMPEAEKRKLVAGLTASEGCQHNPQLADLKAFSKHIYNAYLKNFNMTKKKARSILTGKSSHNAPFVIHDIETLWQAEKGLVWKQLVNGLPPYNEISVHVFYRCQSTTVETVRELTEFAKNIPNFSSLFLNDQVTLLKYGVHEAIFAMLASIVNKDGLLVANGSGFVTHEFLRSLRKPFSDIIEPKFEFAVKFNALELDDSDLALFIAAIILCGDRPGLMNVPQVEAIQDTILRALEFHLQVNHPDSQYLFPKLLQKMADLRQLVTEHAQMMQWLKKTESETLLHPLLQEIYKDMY
PROCEDURE_TEXT: Agonist activity at Gal4-fused mouse PPAR-delta ligand binding domain expressed in CHO-K1 cells assessed as receptor transactivation incubated for 24 to 48 hrs by luciferase reporter gene assay
ENDPOINT_NAME: EC50 (nM)

>>> data_value("CC[C@H]1CN(c2nc3ccc(Cl)cc3s2)CCC1CCOc1cc(CC(=O)O)ccc1Cl (some centres undefined)")
5.8
>>> data_value("Cc1cc(CC(=O)O)cc(CN2CCN(c3nc4ccc(C(F)(F)F)cc4s3)[C@@H](C)C2)c1")
39
>>> data_value("Cc1cc(CC(=O)O)cc(CN2CCN(c3nc4ccc(C(F)(F)F)cc4s3)C[C@H]2C)c1")
34
>>> data_value("Cc1ccc(CC(=O)O)cc1OCCN1CCN(c2nc3ccc(Cl)cc3s2)CC1")
110
>>> data_value("Cc1cc(CC(=O)O)cc(CN2CCN(c3nc4ccc(C(F)(F)F)cc4s3)[C@@H](C(C)C)C2)c1")
12

a. CC[C@H]1CN(c2nc3ccc(C(F)(F)F)cc3s2)CCN1CCOc1cc(CC(=O)O)ccc1Cl
b. Cc1ccc(CC(=O)O)cc1OCCN1CCN(c2nc3ccc(Cl)cc3s2)C[C@@H]1C
-- ask Between the two listed entries a and b , which has its EC50 at the higher number? Select an item and report its label.
-- reply b
(b: 25 nM, a: 6.1 nM)

a. Cc1cc(CC(=O)O)cc(CN2CCN(c3nc4ccc(C(F)(F)F)cc4s3)[C@H](C(C)C)C2)c1
b. C[C@H]1CN(c2nc3ccc(Cl)cc3s2)CCN1CCOc1cc(CC(=O)O)ccc1Cl
-- ask Parameter metric = EC50. Return the lower-valued option from a and b . Your choice should be expressed through its label.
-- reply a

I. Cc1cc(CC(=O)O)cc(CN2CCN(c3nc4ccc(C(F)(F)F)cc4s3)[C@H](CC(C)C)C2)c1
II. Cc1cc(CC(=O)O)cc(CN2CCN(c3nc4ccc(C(F)(F)F)cc4s3)C[C@@H]2C)c1
III. CC1CN(c2nc3ccc(Cl)cc3s2)CCC1CCOc1cc(CC(=O)O)ccc1Cl (centres undefined)
IV. Cc1cc(CC(=O)O)cc(CN2CCN(c3nc4ccc(C(F)(F)F)cc4s3)[C@@H](CC(C)C)C2)c1
-- ask Arrange these molecules by their EC50, starting with the largest number. A ranking is expressed here by listing the labels in the requested order.
-- reply IV, III, II, I

I. CC(C)C[C@H]1CN(c2nc3ccc(Cl)cc3s2)CCC1CCOc1cc(CC(=O)O)ccc1Cl (some centres undefined)
II. C[C@H]1CN(CCOc2cc(CC(=O)O)ccc2Cl)CCN1c1nc2ccc(Cl)cc2s1
-- ask Select one: I or II . Criterion: greater recorded EC50. Field: selected label. Fill in the label of the entry you choose.
-- reply I
(I: 61 nM, II: 27 nM)

====

Measurement record for Peroxisome proliferator-activated receptor gamma (Homo sapiens, UniProt P37231); quantity recorded: EC50.
ENDPOINT_NAME: EC50 (µM)

>>> data_value("CC(C)C[C@H]1CN(c2nc3ccc(Cl)cc3s2)CCC1CCOc1cc(CC(=O)O)ccc1Cl (some centres undefined)")
1.1
>>> data_value("Cc1cc(CC(=O)O)cc(CN2CCN(c3nc4ccc(C(F)(F)F)cc4s3)[C@H](C)C2)c1")
1.2

1. Cc1cc(CC(=O)O)cc(CN2CCN(c3nc4ccc(C(F)(F)F)cc4s3)[C@@H](CC(C)C)C2)c1
2. Cc1cc(CC(=O)O)cc(CN2CCN(c3nc4ccc(C(F)(F)F)cc4s3)[C@@H](C)C2)c1
-- ask Returns: the argument ( 1 or 2 ) having the larger EC50. Bench note: the answer is the label of the chosen record.
-- reply 2

====

Tested on: Mus musculus
PROCEDURE_TEXT: Antihypercholesterolemic activity against hApoB100/hCETP-dTg hypercholesterolemic mouse model assessed as serum HDL-C level at 3 mg/kg, po administered once daily for 8 days
Type: functional
MEASUREMENT_CONTEXT: time 8 day
ENDPOINT_NAME: Activity (%)
Kindly provide the numeric value in % only, without the unit symbol.

>>> data_value("Cc1cc(SCc2sc(-c3ccc(C(F)(F)F)cc3)nc2C)ccc1OCC(=O)O")
141

-- ask Give the value of Activity reported for the following: CC[C@H]1CN(c2nc3ccc(C(F)(F)F)cc3s2)CCN1CCOc1cc(CC(=O)O)ccc1Cl
-- reply 156

====

ASSAY_TARGET: Peroxisome proliferator-activated receptor alpha (Homo sapiens, UniProt Q07869)
Sequence (Q07869 whole entry): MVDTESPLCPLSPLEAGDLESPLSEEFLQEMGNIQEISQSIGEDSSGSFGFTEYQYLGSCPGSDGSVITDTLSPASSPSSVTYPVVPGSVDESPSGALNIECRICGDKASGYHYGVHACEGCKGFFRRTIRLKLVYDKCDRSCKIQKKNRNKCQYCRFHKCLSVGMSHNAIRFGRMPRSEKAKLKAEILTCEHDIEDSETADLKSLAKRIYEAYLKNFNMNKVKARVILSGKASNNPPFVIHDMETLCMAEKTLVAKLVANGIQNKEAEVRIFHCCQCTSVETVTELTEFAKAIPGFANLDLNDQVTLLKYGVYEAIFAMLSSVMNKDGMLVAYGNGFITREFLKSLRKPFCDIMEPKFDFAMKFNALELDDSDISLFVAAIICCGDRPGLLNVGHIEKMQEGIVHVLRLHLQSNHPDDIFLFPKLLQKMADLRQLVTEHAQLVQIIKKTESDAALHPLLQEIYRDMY
PROCEDURE_TEXT: Agonist activity at Gal4-fused human PPAR-alpha ligand binding domain expressed in CHO-K1 cells assessed as receptor transactivation incubated for 24 to 48 hrs by luciferase reporter gene assay
pEC50: −log10 of the molar value.
ENDPOINT_NAME: pEC50

>>> data_value("Cc1cc(CC(=O)O)cc(CN2CCN(c3nc4ccc(C(F)(F)F)cc4s3)[C@@H](C)C2)c1")
5.74
>>> data_value("Cc1cc(CC(=O)O)cc(CN2CCN(c3nc4ccc(C(F)(F)F)cc4s3)[C@H](C)C2)c1")
5.80
